Lab note: Kd readings collected with Cyclin-dependent kinase 3 (Homo sapiens, UniProt Q00526) for the following compounds.
Sequence (Q00526 whole entry): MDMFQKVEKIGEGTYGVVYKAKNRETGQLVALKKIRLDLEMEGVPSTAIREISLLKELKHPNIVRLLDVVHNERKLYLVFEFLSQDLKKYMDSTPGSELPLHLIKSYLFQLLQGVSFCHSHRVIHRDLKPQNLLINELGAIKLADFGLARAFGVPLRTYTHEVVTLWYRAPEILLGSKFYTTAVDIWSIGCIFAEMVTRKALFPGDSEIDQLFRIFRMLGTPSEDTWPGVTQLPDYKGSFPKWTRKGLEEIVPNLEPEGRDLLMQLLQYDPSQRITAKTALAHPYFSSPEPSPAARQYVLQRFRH
Active and inactive are the calls of the source.

# SMILES DATA, RESULT
records = [
    ("COCC(=O)NC/C=C/c1ccc2ncnc(Nc3ccc(Oc4ccc(C)nc4)c(C)c3)c2c1", "> 30 µM (inactive)"),
    ("C[C@@H](NC(=O)c1ncnc(N)c1Cl)c1ncc(C(=O)Nc2cc(C(F)(F)F)c(Cl)cn2)s1", "> 30 µM (inactive)"),
    ("Cc1nc2cc(-n3ncc(C(=O)c4cc5ccccc5[nH]4)c3N)ccc2[nH]1", "> 30 µM (inactive)"),
    ("COc1cc2c(Nc3ccc(Cl)c(Cl)c3F)ncnc2cc1OC[C@@H]1C[C@@H]2CN(C)C[C@@H]2C1", "> 30 µM (inactive)"),
    ("COc1ncc(-c2ccc3nccc(-c4ccnnc4)c3c2)cc1NS(=O)(=O)c1ccc(F)cc1F", "> 30 µM (inactive)"),
    ("CCS(=O)(=O)c1cccc(-c2cc(C(=O)NC3CCN(C)CC3)c(C)c3[nH]c4ncc(C)cc4c23)c1", "> 30 µM (inactive)"),
]

Let us move to another entry and its Kd.
query: // Kd lookup, key: CCn1c(C(=O)N(C2CC2)C2CC2)cc2c3c(ncn3C)c(Nc3cc(C)n(C)n3)nc21
result: > 30 µM (inactive)

====

- SYSTEM: Mitogen-activated protein kinase kinase kinase 4 (Homo sapiens); also: in the data inactive means no Kd found up to 30 µM
- Sequence (Q9Y6R4 whole entry): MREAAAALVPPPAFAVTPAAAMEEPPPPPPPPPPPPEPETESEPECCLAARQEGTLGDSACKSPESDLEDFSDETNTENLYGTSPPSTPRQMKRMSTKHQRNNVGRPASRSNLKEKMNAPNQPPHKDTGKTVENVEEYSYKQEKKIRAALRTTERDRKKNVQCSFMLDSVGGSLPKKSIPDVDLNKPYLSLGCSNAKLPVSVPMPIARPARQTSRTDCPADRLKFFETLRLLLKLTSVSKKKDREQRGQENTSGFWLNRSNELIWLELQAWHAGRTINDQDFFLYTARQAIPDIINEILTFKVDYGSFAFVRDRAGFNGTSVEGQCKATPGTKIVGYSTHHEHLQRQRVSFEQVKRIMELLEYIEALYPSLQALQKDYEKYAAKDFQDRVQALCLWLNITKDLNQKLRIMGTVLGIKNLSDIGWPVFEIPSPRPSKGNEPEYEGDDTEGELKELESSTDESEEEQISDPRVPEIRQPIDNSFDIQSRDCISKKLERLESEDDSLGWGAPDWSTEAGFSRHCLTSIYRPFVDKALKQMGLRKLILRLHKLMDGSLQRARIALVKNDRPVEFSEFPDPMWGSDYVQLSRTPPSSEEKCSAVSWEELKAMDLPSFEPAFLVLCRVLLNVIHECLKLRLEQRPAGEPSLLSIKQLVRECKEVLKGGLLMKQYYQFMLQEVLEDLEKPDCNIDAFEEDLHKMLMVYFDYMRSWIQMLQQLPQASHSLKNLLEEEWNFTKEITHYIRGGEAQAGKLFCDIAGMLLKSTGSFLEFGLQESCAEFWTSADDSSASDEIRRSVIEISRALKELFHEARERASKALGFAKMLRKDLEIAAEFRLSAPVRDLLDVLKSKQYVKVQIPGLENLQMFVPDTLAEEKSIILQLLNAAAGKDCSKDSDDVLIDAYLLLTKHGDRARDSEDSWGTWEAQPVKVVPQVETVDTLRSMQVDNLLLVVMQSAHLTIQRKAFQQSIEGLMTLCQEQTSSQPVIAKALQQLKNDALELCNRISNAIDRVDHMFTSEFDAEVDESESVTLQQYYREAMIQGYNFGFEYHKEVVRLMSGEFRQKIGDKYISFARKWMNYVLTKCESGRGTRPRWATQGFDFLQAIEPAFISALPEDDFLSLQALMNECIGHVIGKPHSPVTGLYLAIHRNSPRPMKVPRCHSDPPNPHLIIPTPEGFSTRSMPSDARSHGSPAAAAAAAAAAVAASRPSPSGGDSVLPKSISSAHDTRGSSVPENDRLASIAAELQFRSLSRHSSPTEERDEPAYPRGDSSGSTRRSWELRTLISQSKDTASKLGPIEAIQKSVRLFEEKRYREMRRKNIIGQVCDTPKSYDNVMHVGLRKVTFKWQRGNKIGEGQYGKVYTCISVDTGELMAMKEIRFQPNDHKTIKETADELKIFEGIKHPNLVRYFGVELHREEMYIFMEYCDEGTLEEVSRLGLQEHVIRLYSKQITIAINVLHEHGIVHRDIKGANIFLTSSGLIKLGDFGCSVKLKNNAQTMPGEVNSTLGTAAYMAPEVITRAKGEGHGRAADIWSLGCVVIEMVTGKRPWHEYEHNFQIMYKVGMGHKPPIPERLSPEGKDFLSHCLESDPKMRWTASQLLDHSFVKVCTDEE
The source made the active and inactive calls.
I would appreciate it if you answered using one of these outcomes: active, inactive

# COMPOUND, ANSWER LABEL
data = [
    ("Cn1ncc(Cl)c1-c1cc(C(=O)N[C@H](CN)Cc2ccc(F)c(F)c2)oc1Cl [UPROSERTIB]", "inactive"),
    ("CC(C)(C)c1nc(-c2cccc(NS(=O)(=O)c3c(F)cccc3F)c2F)c(-c2ccnc(N)n2)s1 [DABRAFENIB]", "inactive"),
    ("CNC(=O)c1nn(C)c2c1C(C)(C)Cc1cnc(Nc3ccc(N4CCN(C)CC4)cc3)nc1-2 [MILCICLIB]", "active"),
    ("C=CC(=O)Nc1cc2c(Nc3ccc(F)c(Cl)c3)ncnc2cc1C#CC(C)(C)N1CCN(C)CC1 [AV-412 FREE BASE]", "inactive"),
    ("Cc1nc2cc(-c3nn(C(C)C)c4ncnc(N)c34)ccc2o1", "inactive"),
]

query: Query: recorded result category for COc1c(OCCCN2CCOCC2)ccc2c1N=C(NC(=O)c1cnc(N)nc1)N1CCN=C21 [COPANLISIB] in this test
result: inactive

query: Query: recorded result category for COc1cc([C@@H]2c3cc4c(cc3[C@H](O)[C@H]3COC(=O)[C@@H]23)OCO4)cc(OC)c1OC [AXL-1717] in this test
result: inactive

query: Tell me the assay call for CN1CCN(CCOc2cc(OC3CCOCC3)c3c(Nc4c(Cl)ccc5c4OCO5)ncnc3c2)CC1 [SARACATINIB] please.
result: inactive

====

- SYSTEM: Mitogen-activated protein kinase 9 (Homo sapiens, UniProt P45984); also: in the data inactive means no Kd found up to 30 µM
- Sequence (P45984 whole entry): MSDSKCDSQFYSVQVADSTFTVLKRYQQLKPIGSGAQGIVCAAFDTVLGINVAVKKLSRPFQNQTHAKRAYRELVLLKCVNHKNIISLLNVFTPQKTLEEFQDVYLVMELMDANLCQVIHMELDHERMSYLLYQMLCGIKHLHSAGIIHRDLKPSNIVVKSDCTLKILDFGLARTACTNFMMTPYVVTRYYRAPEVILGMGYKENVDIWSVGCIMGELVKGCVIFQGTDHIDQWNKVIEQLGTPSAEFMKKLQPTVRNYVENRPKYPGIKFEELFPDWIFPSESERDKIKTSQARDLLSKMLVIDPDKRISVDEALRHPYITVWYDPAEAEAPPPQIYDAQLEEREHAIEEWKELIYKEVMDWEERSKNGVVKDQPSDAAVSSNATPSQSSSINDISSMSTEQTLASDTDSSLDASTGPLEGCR
Where a name gives a salt, the structure may show the parent alone. Activity calls are given as the source filed them.
The reply should be one of these categories: true (1) = active, false (0) = inactive

Reference set, count: 10
# COMPOUND, SYSTEM, ANSWER LABEL
data = [
    ("Nc1ncnc2c1c(-c1cccc(OCc3ccccc3)c1)cn2[C@H]1C[C@@H](CN2CCC2)C1 [AEW-541]", "Mitogen-activated protein kinase 9 (Homo sapiens, UniProt P45984)", "false (0)"),
    ("O=C(Nc1cc(C(F)(F)F)cc(C(F)(F)F)c1)c1cc(Cl)ccc1O [IMD-0354]", "Mitogen-activated protein kinase 9 (Homo sapiens, UniProt P45984)", "false (0)"),
    ("CCS(=O)(=O)N1CCN(c2ccc(Nc3ncc(C(N)=O)c(NC4CC4)n3)cc2)CC1 [Cerdulatinib Hydrochloride]", "Mitogen-activated protein kinase 9 (Homo sapiens, UniProt P45984)", "true (1)"),
    ("Cc1cc(Nc2ncc(Cl)c(Nc3ccccc3S(=O)(=O)C(C)C)n2)c(OC(C)C)cc1C1CCNCC1 [CERITINIB]", "Mitogen-activated protein kinase 9 (Homo sapiens, UniProt P45984)", "false (0)"),
    ("CN1C/C=C/CCOc2cccc(c2)-c2ccnc(n2)Nc2cccc(c2)C1 [ZOTIRACICLIB]", "Mitogen-activated protein kinase 9 (Homo sapiens, UniProt P45984)", "true (1)"),
    ("COc1cc2ncnc(Oc3cccc(NC(=O)Nc4cc(C(C)(C)C(F)(F)F)on4)c3)c2cc1OC [CEP-32496]", "Mitogen-activated protein kinase 9 (Homo sapiens, UniProt P45984)", "true (1)"),
    ("Cc1csc(-c2nnc(Nc3ccc(Oc4ncccc4-c4ccnc(N)n4)cc3)c3ccccc23)c1 [AMG-900]", "Mitogen-activated protein kinase 9 (Homo sapiens, UniProt P45984)", "false (0)"),
    ("CO[C@H]1C[C@@H]2CC[C@@H](C)[C@@](O)(O2)C(=O)C(=O)N2CCCC[C@H]2C(=O)O[C@H]([C@H](C)C[C@@H]2CC[C@@H](O)[C@H](OC)C2)CC(=O)[C@H](C)/C=C(\\C)[C@@H](O)[C@@H](OC)C(=O)[C@H](C)C[C@H](C)/C=C/C=C/C=C/1C [SIROLIMUS]", "Mitogen-activated protein kinase 9 (Homo sapiens, UniProt P45984)", "false (0)"),
    ("COc1ncc(-c2ccc3nccc(-c4ccnnc4)c3c2)cc1NS(=O)(=O)c1ccc(F)cc1F [OMIPALISIB]", "Mitogen-activated protein kinase 9 (Homo sapiens, UniProt P45984)", "false (0)"),
    ("Cc1nc2cc(-c3nn(C(C)C)c4ncnc(N)c34)ccc2o1", "Mitogen-activated protein kinase 9 (Homo sapiens, UniProt P45984)", "false (0)"),
]

query: Outcome logged for C[C@@H](Oc1cc(C(=O)Nc2ccc(C(=O)N3CCN(C)CC3)cc2)nnc1N)c1c(Cl)ccc(F)c1Cl in this assay:
result: false (0)

query: // outcome(item) with item = Cc1cc(Nc2ncnc3ccc(NC4=NC(C)(C)CO4)cc23)ccc1Oc1ccn2ncnc2c1 [TUCATINIB]
result: false (0)

query: Any idea what this test logged for CNC(=O)c1cccc2cc(Oc3ccnc4cc(OCC5(N)CC5)c(OC)cc34)ccc12 [LUCITANIB] ?
result: false (0)

query: I'd appreciate the recorded outcome for C=CC(=O)N1CCC[C@H](n2c(=O)n(-c3ccc(Oc4ccccc4)cc3)c3c(N)ncnc32)C1 from this test.
result: false (0)

query: Field: outcome | Entry: N#CC1(c2ccc(NC(=O)c3cccnc3NCc3ccncc3)cc2)CCCC1 [RIVOCERANIB]
result: false (0)
